IC50 at 72 h values by entry
- test details: DNDI: Cytotoxicity against L929 mouse fibroblasts, 72 hour.
- Type: toxicity, cell-based
- measurement setup: mouse, L929 mouse fibroblasts
Report the figure in µg/mL without appending any unit label.

The cases that follow already have their IC50 at 72 h on record.
molecule="Brc1ccc(-c2nc(CNC3[C@H]4C[C@@H]5C[C@@H](C[C@H]3C5)C4)co2)cc1 (stereo partly specified)" recorded_number=8.08
molecule="CCCCCC(C)NCc1coc(-c2ccccc2Oc2ccccc2)n1 (stereo unspecified)" recorded_number=6.3
molecule=Fc1ccc(-c2cc3nc(-c4ccccc4)cc(NCCN4CCCC4)n3n2)cc1 recorded_number=4.94
molecule="CCCOc1ccc(-c2nc(CNC3[C@H]4C[C@@H]5C[C@@H](C[C@H]3C5)C4)co2)cc1 (stereo partly specified)" recorded_number=3.67
molecule="CCCCCC(C)NCc1coc(-c2cc(F)cc(F)c2)n1 (stereo unspecified)" recorded_number=7.08
molecule=CCCCc1ccc(-c2nc(CNCCCN(CC)CC)co2)cc1 recorded_number=0.89

INPUT: Annotate the molecule CCCCCC(C)NCc1coc(-c2ccc(OCC(C)C)cc2)n1 (stereo unspecified) with its measured IC50 at 72 h.
OUTPUT: 1.48

INPUT: Annotate the molecule COc1ccccc1CNC(CCc1ccccc1)c1nc(Cc2ccccc2)c(N2CCCCC2)o1 (stereo unspecified) with its measured IC50 at 72 h.
OUTPUT: 8.24

INPUT: Annotate the molecule CCCCCC(C)NCc1coc(-c2cc3ccccc3s2)n1 (stereo unspecified) with its measured IC50 at 72 h.
OUTPUT: 3.46

INPUT: Annotate the molecule CCCCc1ccc(-c2nc(C(F)(F)F)co2)cc1 with its measured IC50 at 72 h.
OUTPUT: 43.8

INPUT: Annotate the molecule CCCCCC(C)NCc1coc(-c2ccc(OCCOCC)cc2)n1 (stereo unspecified) with its measured IC50 at 72 h.
OUTPUT: 5.78

INPUT: Annotate the molecule CCCCCC(C)NCc1coc(-c2ccc(C(C)(C)C)cc2)n1 (stereo unspecified) with its measured IC50 at 72 h.
OUTPUT: 1.36
